Target: T1, IL-13RA2 huFc (human)
T1 construct: Expressed in 293F cells, purified on protein A; also called human IL13RA2; recombinant IL-13RA2
T1 sequence (chain, as listed by the source limits assumed): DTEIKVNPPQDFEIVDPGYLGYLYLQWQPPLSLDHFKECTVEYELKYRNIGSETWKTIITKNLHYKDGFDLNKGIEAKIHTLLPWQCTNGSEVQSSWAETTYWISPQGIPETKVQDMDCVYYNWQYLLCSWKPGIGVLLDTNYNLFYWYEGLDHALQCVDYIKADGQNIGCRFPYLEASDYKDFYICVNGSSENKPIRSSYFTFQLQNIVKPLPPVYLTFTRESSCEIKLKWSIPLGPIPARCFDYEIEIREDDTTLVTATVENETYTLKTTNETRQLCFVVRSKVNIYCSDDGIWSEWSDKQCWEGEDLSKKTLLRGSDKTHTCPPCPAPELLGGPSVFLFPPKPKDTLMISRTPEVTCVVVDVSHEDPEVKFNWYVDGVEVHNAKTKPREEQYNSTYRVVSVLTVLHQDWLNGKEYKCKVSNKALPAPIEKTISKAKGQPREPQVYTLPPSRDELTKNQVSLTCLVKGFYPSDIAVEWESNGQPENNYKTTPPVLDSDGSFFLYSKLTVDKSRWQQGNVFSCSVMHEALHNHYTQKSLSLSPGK
Experiment: SPR (Biacore T200), ligand IL13Ra2 on the chip, scFv_Fc as analyte at 6.25 to 100 nM, 1:1 binding fit, flow 30 ul/min
READOUT LABEL: Kd (pM)
Write it as a number; the unit pM goes unstated.

Worked examples, 3 binders total:
# BINDER, Kd, pM
data = [
    ("1B11 (scFv_Fc form) (Fc fusion, not shown: human Fc segment of the eukaryotic expression vector V152) scFv: EVQLLESGGGLVQPGGSLRLSCAASGFTFSRDALNWVRQAPGKGLEWVSAISGSGGSTFYADSVKGRFTISRDNSKNTLYLQMNSLRAEDTAVYYCAKVRYGWGAGAFDYWGQGTLVTVSSGGGGSGGGGSGGGGSDIQMTQSPSTLSASVGDRVTITCRASQSISSWLAWYQQKPGKAPKLLIYDASSLESGVPSRFSGSGSGTEFTLTISSLQPDDFATYYCQQYDTYPPITFGQGTKVEIK", 1040),
    ("2D4 (scFv_Fc form) (Fc fusion, not shown: human Fc segment of the eukaryotic expression vector V152) scFv: EVQLLESGGGLVQPGGSLRLSCAASGFTFRKYAMGWVRQAPGKGLEWVSGISGSVGSTYYADSVKGRFTISRDNSKNTLYLQMNSLRAEDTAVYYCAKVRYGWGAGAFDYWGQGTLVTVSSGGGGSGGGGSGGGGSDIQMTQSPSTLSASVGDRVTITCRASQSISSWLAWYQQKPGKAPKLLIYDASSLESGVPSRFSGSGSGTEFTLTISSLQPDDFATYYCQQYDTYPPITFGQGTKVEIK", 174),
    ("2C7 (scFv_Fc form) (Fc fusion, not shown: human Fc segment of the eukaryotic expression vector V152) scFv: EVQLLESGGGLVQPGGSLRLSCAASGFTFKLPAMSWVRQAPGKGLEWVSAITGSGGSTYYADSVKGRFTISRDNSKNTLYLQMNSLRAEDTAVYYCAKVRYGWGAGAFDYWGQGTLVTVSSGGGGSGGGGSGGGGSDIQMTQSPSTLSASVGDRVTITCRASQSISSWLAWYQQKPGKAPKLLIYDASSLESGVPSRFSGSGSGTEFTLTISSLQPDDFATYYCQQYDTYPPITFGQGTKVEIK", 248),
]

Let us move to another entry and its Kd.
Inquiry: Entry under review: 5D7 (scFv_Fc form) (Fc fusion, not shown: human Fc segment of the eukaryotic expression vector V152) scFv: EVQLLESGGGLVQPGGSLRLSCAASGFTFSNYAMSWVRQAPGKGLEWVSGIRSSGGRTFYADSVKGRFTISRDNSKNTLYLQMNSLRAEDTAVYYCARVAFSGSFDYWGQGTLVTVSSGGGGSGGGGSGGGGSDIQMTQSPSTLSASVGDRVTITCRASQSISSWLAWYQQKPGKAPKLLIYDASSLESGVPSRFSGSGSGTEFTLTISSLQPDDFATYYCQQRNRYPPTFGQGTKVEIK . Reported Kd?
Reply text: 335

Reference for the values: patent US20190359723A1
